# credit: PubChem BioAssay AID1347404

Measured inhibition, listed per entry.
Biological target: E3 ubiquitin-protein ligase RBX1 (Homo sapiens) + Cullin-1 (Homo sapiens) (UniProt P62877+Q13616)
Sequence (P62877 whole entry, looked up): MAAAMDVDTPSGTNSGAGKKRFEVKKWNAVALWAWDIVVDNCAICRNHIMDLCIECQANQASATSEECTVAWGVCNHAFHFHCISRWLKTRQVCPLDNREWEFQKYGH
Sequence (Q13616 whole entry, looked up): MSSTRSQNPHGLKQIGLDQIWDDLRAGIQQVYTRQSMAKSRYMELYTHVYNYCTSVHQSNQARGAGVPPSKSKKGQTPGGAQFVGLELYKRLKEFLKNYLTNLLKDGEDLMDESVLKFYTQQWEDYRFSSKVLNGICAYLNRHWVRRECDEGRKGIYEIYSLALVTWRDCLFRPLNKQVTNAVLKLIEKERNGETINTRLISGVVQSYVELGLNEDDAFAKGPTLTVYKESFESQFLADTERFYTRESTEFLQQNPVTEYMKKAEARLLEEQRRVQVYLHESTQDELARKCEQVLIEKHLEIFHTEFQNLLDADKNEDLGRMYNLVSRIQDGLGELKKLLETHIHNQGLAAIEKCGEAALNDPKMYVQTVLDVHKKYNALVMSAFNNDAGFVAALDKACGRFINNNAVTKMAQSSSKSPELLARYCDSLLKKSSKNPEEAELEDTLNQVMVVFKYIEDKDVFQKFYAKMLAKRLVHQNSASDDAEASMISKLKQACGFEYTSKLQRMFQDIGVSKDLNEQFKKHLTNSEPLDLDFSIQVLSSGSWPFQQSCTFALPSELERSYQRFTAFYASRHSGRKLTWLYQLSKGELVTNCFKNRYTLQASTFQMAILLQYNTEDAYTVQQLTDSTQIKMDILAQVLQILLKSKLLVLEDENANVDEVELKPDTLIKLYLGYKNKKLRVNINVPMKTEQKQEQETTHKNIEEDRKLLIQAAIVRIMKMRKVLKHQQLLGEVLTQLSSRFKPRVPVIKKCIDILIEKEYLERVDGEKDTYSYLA
Test: inhibitors of human ROC1-CUL1 ubiquitin ligase activity (AID 1347404)
Conditions: in vitro K48 di-Ub FRET, acceptor:donor ratio, 45 min; at 10 µM; hits give high values
The campaign covered roughly 140,000 compounds. About 860 (0.61%) were called active. This is one part of a sample in which actives are shown more often than they occur.

{"compound": "CCCNC(=O)c1nnn(-c2ccc(C)cc2)c1C", "inhibition": "2.76% (inactive)"}
{"compound": "COc1ccc2c(c1)OC(C)CN(Cc1ccc3cccnc3c1)C2 (stereo unspecified)", "inhibition": "1.92% (inactive)"}
{"compound": "Cc1ccccc1Cn1cc(C(=O)N2CCN(C3CCCC3)CC2)nn1", "inhibition": "14.7% (inactive)"}
{"compound": "Nc1nc2cccnc2cc1Br", "inhibition": "1.54% (inactive)"}
{"compound": "Cc1scc(Cc2csc(C)c2C)c1C", "inhibition": "-4.02% (inactive)"}
{"compound": "Nc1c(C(=O)Nc2ccc(F)c(Cl)c2)sc2nc(-c3ccc(F)cc3)ccc12", "inhibition": "-0.694% (inactive)"}
